# assayMethodText: in vitro
# testParameters: human, microsomes, pH 7.4, HLM CLint (uL/min/mg), human liver microsomes
Quick reference: microsomal CLint at 0.5 μM of the listed items.
Write the number in µL/min/mg without appending the unit.

Completed entries (count: 2):
molecule | quantityMeasured | outputUnit | endpointValue
O=S(=O)(c1cccnc1N1CCOCC1)N(Cc1ccc(F)cc1)Cc1ccc(F)cc1 [DNDI0003389119] | microsomal CLint at 0.5 μM | µL/min/mg | 823
COc1ccc(S(N)(=O)=O)cc1S(=O)(=O)NCc1ccccc1 [DNDI0003407892] | microsomal CLint at 0.5 μM | µL/min/mg | 20

Please fill in: microsomal CLint at 0.5 μM reported for CNCCOc1ccc(F)cc1S(=O)(=O)N(Cc1ccc(F)cc1)Cc1ccc(F)cc1 [DNDI0003389318] = 46

Please fill in: microsomal CLint at 0.5 μM reported for CCCCC1Nc2cc(Cl)c(S(N)(=O)=O)cc2S(=O)(=O)N1Cc1ccccc1 (centres unmarked) [DNDI0003392147] = 22

Please fill in: microsomal CLint at 0.5 μM reported for COc1ccc(C(=O)N2CCOCC2)cc1S(=O)(=O)N(Cc1ccc(F)cc1)Cc1ccccc1Cl [DNDI0003389128] = 351

Please fill in: microsomal CLint at 0.5 μM reported for COc1ccc(CN2CCC(F)(F)CC2)cc1S(=O)(=O)N(Cc1ccc(F)cc1)Cc1ccc(F)cc1 [DNDI0003389116] = 984

Please fill in: microsomal CLint at 0.5 μM reported for COc1ccc(OC)c(S(=O)(=O)N(Cc2ccc(F)cc2)Cc2ccc(C#N)cc2)c1 [DNDI0003388088] = 87

Please fill in: microsomal CLint at 0.5 μM reported for COc1ccc(Cl)cc1S(=O)(=O)N(Cc1ccccc1)CC(N)c1ccc(F)cc1 (centres unmarked) [DNDI0003389932] = 34

###

Quick reference: CC50 at 3 days of the listed items.
# assayMethodText: in vitro
# testParameters: human

Completed entries (count: 6):
molecule | CC50 at 3 days
O=S(=O)(c1cc(F)ccc1F)N(Cc1ccccc1)CC(O)c1ccc(F)cc1 (stereo not drawn) [DNDI0003371159] | 18.7 µM
COCCNc1ccc(S(=O)(=O)N(CCOC)Cc2ccccc2)cc1 [DNDI0003366102] | 38.1 µM
COc1ccc(CN(Cc2ccc(F)cc2)S(=O)(=O)c2cc(C#N)ccc2OC)cc1 [DNDI0003371172] | > 64 µM
COCCN(Cc1ccccc1)S(=O)(=O)c1cc(C(=O)N2CCOCC2)ccc1OC [DNDI0003392126] | > 64 µM
COc1ccc(Cl)cc1S(=O)(=O)N(CC(=O)N1CCN(C)CC1)Cc1ccccc1 [DNDI0003363387] | > 32 µM
COc1ccc(C(=O)N2CCOCC2)cc1S(=O)(=O)N(Cc1ccc(C(F)(F)F)nc1)C(C)c1ccc(F)cc1 (stereo not drawn) [DNDI0003407905] | > 64 µM

Please fill in: CC50 at 3 days reported for COc1ccc(Cl)cc1S(=O)(=O)N(Cc1ccccc1)OC [DNDI0003364476] = > 64 µM

Please fill in: CC50 at 3 days reported for COc1ccc(Cl)cc1S(=O)(=O)N(CCO)Cc1ccccc1 [DNDI0003366068] = > 64 µM

Please fill in: CC50 at 3 days reported for COc1ccc(C)cc1S(=O)(=O)N(CC(N)=O)Cc1ccccc1 [DNDI0003363397] = > 55.4 µM

Please fill in: CC50 at 3 days reported for O=S(=O)(c1ccccn1)N(Cc1ccccc1)Cc1ccccc1 [DNDI0003389646] = > 64 µM

Please fill in: CC50 at 3 days reported for O=S1(=O)c2cc(F)ccc2OC(c2ccc(F)cc2)CN1Cc1ccccc1 (stereo not drawn) [DNDI0003371160] = > 64 µM

Please fill in: CC50 at 3 days reported for CN(C)CCN(Cc1ccccc1)S(=O)(=O)c1ccc(NC(=O)CCCO)cc1 [DNDI0003368293] = > 64 µM

Please fill in: CC50 at 3 days reported for COc1ncccc1S(=O)(=O)N(Cc1ccc(F)cc1)Cc1ccc(F)cc1 [DNDI0003371169] = > 64 µM

Please fill in: CC50 at 3 days reported for COc1ccc(S(C)(=O)=O)cc1S(=O)(=O)N(Cc1ccc(F)cc1)Cc1ccc(F)cc1 [DNDI0003371164] = > 64 µM

Please fill in: CC50 at 3 days reported for COc1ccc(C(=O)NCCO)cc1S(=O)(=O)N(Cc1ccc(F)cc1)Cc1ccc(F)cc1 [DNDI0003371176] = > 64 µM

Please fill in: CC50 at 3 days reported for COC(=O)C(Cc1ccccc1)NS(=O)(=O)c1ccccc1Br (stereo not drawn) [DNDI0003369003] = > 64 µM

Please fill in: CC50 at 3 days reported for CCN(Cc1ccccc1)S(=O)(=O)c1ccccc1 [DNDI0003363563] = > 64 µM

Please fill in: CC50 at 3 days reported for CCCCOc1cc(C)c(Cl)cc1S(=O)(=O)NCc1cccnc1 [DNDI0002558122] = > 32 µM
